Listing: melting point of selected molecules

Some molecules with known melting point results, for comparison:
INSERT INTO assay_data (molecule, reported_metric, result) VALUES
  ('Nc1nc(N)c2ncn(C(O)C3C=CCC3)c2n1 (stereo unspecified)', 'melting point', '152 to 155 °C'),
  ('COc1ccccc(NC(=O)C2=C(O)c3ccccc3S(=O)(=O)N2C)c1=O', 'melting point', '243 to 247 °C'),
  ('O=C(N1CCc2ccc(S(=O)(=O)Cl)cc2C1)C(F)(F)F', 'melting point', '104 to 105 °C'),
  ('CCC(=O)c1ccc(-c2ccc(=O)[nH]n2)cc1', 'melting point', '202 to 205 °C'),
  ('COC(=O)c1cc(=O)c2cc(SC)ccc2[nH]1', 'melting point', '264 to 266 °C');

Kindly note the recorded melting point for CS(=O)c1ccc(-c2cc(C#N)nn2-c2ccc(F)cc2)cc1 (stereo unspecified) , which is 104 to 105 °C

`CS(=O)(=O)c1ccc(/C(=C2\N=C(c3ccccc3)OC2=O)c2ccc(Cl)cc2)cc1` yielded melting point of 226 °C

Documented melting point of CC(CC1OCCc2ccccc21)NCC(O)c1ccc(O)cc1 (stereo unspecified) : 83 to 105 °C

Reported melting point of O=C1CC(Br)C(=O)N1c1ccc(F)cc1 (stereo unspecified) : 154 °C

For reference, reported melting point for `COC(=O)C(Cl)(Cl)Cc1c(Cl)cc(Cl)cc1Cl` stands at 56 to 57 °C

# melting point (molecule: `CN(C)S(=O)(=O)c1ccc(F)cc1` ) is 40 to 43 °C

* * *

Reported melting point values for the following compounds.

INSERT INTO results (compound, result) VALUES
  ('CC(C)C[C@@H](C(=O)N1CCN(C(c2ccc(F)cc2)c2ccc(F)cc2)CC1)N(Cc1ccc(OC(C)(C)C)cc1)Cc1ccc(OC(C)(C)C)cc1', '62 to 67 °C'),
  ('CC(CCCO)C1CC=C2C3=C(CCC21C)C1(C)CCC(O)C(C)(C)C1CC3 (stereo not given)', '203 to 208 °C'),
  ('COC(=O)C1(C(C)C)Oc2c(OC)cccc2C1=O (stereo not given)', '87 to 88 °C'),
  ('NCCSC(c1ccccc1)(c1ccccc1)c1ccccc1', '142 to 143 °C'),
  ('O=C(Cl)CN1C(=O)c2ccc([N+](=O)[O-])cc2C1=O', '129 to 130 °C');

Entry `c1ccc(OCCSCc2nnc(-c3ccc(OCCCN4CCCCC4)cc3)o2)cc1` — recorded melting point = 65 °C

Lab note: `N#Cc1cc(-c2ccccc2)cnc1Cl` gave melting point of 149 to 150 °C

Summary for this compound, `Cc1cc(-c2cc([N+](=O)[O-])ccc2F)cc(C)n1` : melting point is 169 to 171 °C

Reported melting point ( `Cc1cc(-c2ncn(Cc3ccc(F)cc3)n2)sc1C(=O)NCc1ccccc1` ) = 128 to 130 °C

The compound `COC(=O)COc1ccc(C(=O)CN)cc1` showed melting point equal to 135 to 136 °C

* * *

Recorded melting point values for a group of molecules are listed next.

# annotated cases, reported melting point shown
INSERT INTO results (molecule, result) VALUES
  ('COC(=O)c1ccc(/C=C(\C)c2ccc3c(c2)C(C)(C)CCN3C(C)=O)cc1', '141 to 142 °C'),
  ('Nc1ccc(C2(OC(=O)Nc3ccccc3)NCCC(c3ccccc3)O2)cc1 (stereo unspecified)', '110 °C'),
  ('Cc1nc2c(N)nc3cnccc3c2n1CC(C)C', '322 to 324 °C'),
  ('Nc1cccc(C2=NNC(=O)C3CC23)c1 (stereo unspecified)', '192 to 193 °C'),
  ('O=C(C=Cc1ccncc1)c1cccc(C(F)(F)F)c1', '89 to 90 °C');

Proceed to the following item.
Kindly note the recorded melting point for `Cn1ncc2c1=CC1=CC=C(N)C(=O)C=21` , which is 225 to 227 °C

* * *

reported_metric: melting point

Solved entries:
INSERT INTO measurements (compound, result) VALUES
  ('CC(C)Cc1ccc(C2(c3ccccc3)OC(=O)C(O)=C2O)cc1 (stereo unspecified)', '138 to 139 °C'),
  ('O=C(O)C(=O)CC(=O)c1cccn1CCc1ccccc1', '168 to 170 °C'),
  ('Cc1[nH]cnc1CSCCNc1[nH]ccc1[N+](=O)[O-]', '161 to 162 °C'),
  ('C1=Cc2ccccc2C=CN1', '186 to 190 °C'),
  ('COc1cc(NCCCCCCN2CCN(c3ccccn3)CC2)c2nccc(C)c2c1', '78 to 81 °C');

Per the record, `COc1cc(C(=O)c2ccccc2[N+](=O)[O-])c(Br)cn1` has melting point of 128 to 131 °C

melting point recorded for this compound, `O=C(O)c1cn(-c2ccc(F)cc2F)c2c(F)c(N3Cc4cccc(Cl)c4C3)c(F)cc2c1=O` , is 256 to 260 °C

Field melting point (entry `Oc1ccccc1NCCCCCCBr` ) reads 124 to 126 °C

Summary for this compound, `COCC#Cc1cc(OC)c2ncc(C(=O)NCc3ccc(Cl)cc3)c(O)c2c1` : melting point is 211 to 213 °C

Data point: `COc1nc2cc(F)ccc2nc1Cl` ; melting point = 93 to 95 °C

What the record says about `CCOC(=O)c1cnc2ccc(CC3CCOCC3)cc2c1O` : melting point is 275 to 280 °C

* * *

The following compounds are shown together with reported melting point values.

Check out these entries, answers already filled in.
INSERT INTO results (compound, reported_metric, result) VALUES
  ('CCC(O)c1cc(C(=O)OC)c(NC(C)=O)cc1C(F)(F)F (stereo not given)', 'melting point', '120 to 122 °C'),
  ('CCC(O)(CCC(N)=O)c1ccc(Cl)c(Cl)c1 (stereo not given)', 'melting point', '106 to 107 °C'),
  ('CC(CO)Oc1cc(Oc2ccc(C(=O)N3CCC3)cc2F)cc(C(=O)O)c1 (stereo not given)', 'melting point', '133 °C'),
  ('CN1C(=O)[C@@](NC(=O)Nc2cccc(CNc3nnn[nH]3)c2)(C2CCCCC2)N=Cc2ccccc21', 'melting point', '175 to 178 °C'),
  ('CC12CC(C#N)(CC1=O)C(C)(C)O2 (stereo not given)', 'melting point', '74 to 76 °C'),
  ('CCCCCCCNC(=O)Nc1ccc(C(C)C)cc1C(=O)NCC1CCN(C(c2ccccc2)c2ccccc2)CC1', 'melting point', '179 to 180 °C');

Could you now consider this next compound?
`CCOC(=O)c1cnc2c(-c3ccc(Cc4cccc(OC)c4)c(OC)c3)cnn2c1O` yielded melting point of 226 to 238 °C

* * *

Catalogue of melting point values

Below: 2 compounds and their reported melting point.
INSERT INTO assay_data (compound, result) VALUES
  ('CC(C)(C=NO)C(O)(CCc1ccc(F)cc1)Cn1cncn1 (centres undefined)', '101 to 103 °C'),
  ('Cc1oc(-c2ccccc2)nc1CCOc1ccc(/C=C/CO)cn1', '115 to 116 °C');

Measured melting point of `Cc1cc(-c2cc(C(F)(F)F)n3ncc(-c4nc(-c5ccnc(N)c5)no4)c3n2)ccc1C(F)(F)F` : 245 °C

Lab note: measured melting point of `O=C(O)c1ccc(C=Cc2csc3ccccc23)s1` was 196 to 197 °C

* * *

Known melting point of a selection of molecules

Here are 2 molecules together with their reported answers.
INSERT INTO results (molecule, result) VALUES
  ('CC(C)(C)OC(=O)N1C(=O)C2(COc3cc4c(cc32)OCCO4)c2ccccc21 (centres undefined)', '171 to 172 °C'),
  ('CS(=O)(=O)c1ccc(-c2cc(/C=C/CO)nn2CC2CCCCC2)cc1', '49 to 52 °C');

The molecule `CCCNC(=O)c1nc(-c2ccccc2)c(-c2ccc(=O)n(C)n2)s1` showed melting point equal to 108 to 109 °C

Recorded result, Cc1cc2c(cc1C(=O)CBr)C(C)(C)CC(C)C2(C)C (centres undefined) , melting point: 68 °C

Memo: CC(=O)OCc1ccc(OCC(OC(C)=O)c2cc3cc(C(C)C)ccc3o2)cc1 (centres undefined) , reported melting point: 74 to 76 °C

Per the record, CC(C)(O)C(O)c1ccc(-c2ccc(/C(=C/C3CCOCC3)c3ccc(S(=O)(=O)C4CC4)cc3)[nH]2)nc1 (centres undefined) has melting point of 196 to 197 °C

* * *

reported_metric: melting point

Worked examples, 3 compounds total:
INSERT INTO measurements (compound, result) VALUES
  ('Cc1c(Sc2cccnc2)sc2ccc(C(=O)O)cc12', '220 to 222 °C'),
  ('C1=C(c2cccs2)CCN(CCCCc2c[nH]c3cc4c(cc23)OCO4)C1', '86 °C'),
  ('CCOC(=N)C(O)c1sccc1C (stereo unspecified)', '73 to 76 °C');

Would you kindly look at the next entry?
Record summary for `CC(C)Nn1c(CO)nc2c(N)nc3cccnc3c21` : reported melting point = 242 to 243 °C

FYI, the data here is from a melting point compilation (Tetko et al.; mined from patent text by program, amines drawn as free bases though some values may be those of a salt).
